experiment: gradient 5% acetonitrile 3 min, to 50% in 2 min, to 85% in 15 min, held 3 min, 100 µL/min
conditions-used: column: Zorbax Extend-C18 2.1 x 50 mm; eluents: water / acetonitrile, 0.1% formic acid
parameter-measured: RP-LC retention time (s)
Quick note: give the figure in s, leave out the unit.

Solved entries:
compound | RP-LC retention time / s
CN1CCN(C(=O)C2CCN(c3nc4ccc(-c5ccsc5)nc4s3)CC2)CC1 | 651
Cc1c(-c2noc(-c3ccccc3)n2)nnn1-c1ccc(F)cc1 | 1070
CC1CN(C(=O)N2CCC(C(=O)N3CCC(C(N)=O)CC3)CC2)c2cc(Cl)ccc2O1 (centres undefined) | 679

Then this compound:
Field request: RP-LC retention time | item: Cn1nc(C(=O)N2CCCC(C(=O)NC3CC3)C2)c2c1CCN(C(=O)c1ccc(F)cc1)C2 (centres undefined)
633

###

experiment: gradient 5% acetonitrile 3 min, to 50% in 2 min, to 85% in 15 min, held 3 min, 100 µL/min
conditions-used: column: Zorbax Extend-C18 2.1 x 50 mm; eluents: water / acetonitrile, 0.1% formic acid
parameter-measured: RP-LC retention time (s)
Write the value in s as a bare number.

Examples from the recorded data:
molecule | RP-LC retention time (s)
O=C(NCC1CCN(C(=O)Oc2ccccc2)CC1)c1cnccn1 | 689
Cc1ccc(CNC(=O)C2CCCCC(=O)N2)o1 (stereo not given) | 636

Suppose we examine the molecule O=C(CCc1c(-c2ccc(Cl)cc2)nc2ccccn12)Nc1cccc(F)c1 ; what RP-LC retention time value has been reported?
795

Data request, read-out RP-LC retention time, for CCOCC(=O)N1CCCN(C2=NS(=O)(=O)C(c3ccc(CC)cc3)=C2C)CC1
790

I am curious: what RP-LC retention time value has been reported for Cn1nccc1-c1cccc(-c2noc(-c3cccc(Br)c3)n2)c1 ?
1300

May I ask what RP-LC retention time has been recorded for Cc1ccc(CNC(=O)c2ncn3c2C(=O)N(C2CC2)C(C)(C(=O)NC2CCCC2)C3)cc1 (stereo not given) ?
770

###

experiment: gradient 5% acetonitrile 3 min, to 50% in 2 min, to 85% in 15 min, held 3 min, 100 µL/min
conditions-used: column: Zorbax Extend-C18 2.1 x 50 mm; eluents: water / acetonitrile, 0.1% formic acid
parameter-measured: RP-LC retention time (s)
# number only, unit s dropped from output

compound | parameter-measured | number
CC1CCCCN1CCNC(=O)CCCn1c(=O)c2cccn2c2ccccc21 (centres undefined) | RP-LC retention time | 621
Cn1c(N2CCCN(C(=O)CCn3c(C4CCCCC4)nc4ccccc43)CC2)cc(=O)n(C)c1=O | RP-LC retention time | 610
Cc1ccc(-n2c(N)cc(=O)nc2SCC(=O)Nc2nc3ccc(C)cc3s2)cc1 | RP-LC retention time | 686
CCOc1cccc(-c2noc(Cn3c(=O)n(-c4ccc(OC)cc4)c(=O)c4sccc43)n2)c1 | RP-LC retention time | 1000
CCn1c(SCC(=O)N2CCCC2)nnc1-c1ccc2c(c1)OCCCO2 | RP-LC retention time | 666

Using the record for c1cc2c(cc1-c1noc(-c3ccc4c(c3)OCO4)n1)ncn2CCN1CCCC1 , report its RP-LC retention time.
634

What value of RP-LC retention time has been reported for the following compound? CCc1nc(-c2csc(S(=O)(=O)N3CCCC(C(=O)Nc4cccc(C)n4)C3)c2)no1 (centres undefined)
869

Name the recorded RP-LC retention time for COc1cccc2c1cc1c(=O)n(CC(=O)N3CCN(c4ccccn4)CC3)nc(C)n12 .
591

Entry COc1ccc(NC(=O)Cn2nc(N3CCOCC3)c3ccccc3c2=O)cc1 : reported RP-LC retention time = ?
730
